# test details: The drug is tested on WLS-310 corresponding to human gut metagenome with ENA study accession number: PRJEB37062 and ENA sample accession number: ERS12561785 for biotransformation under anaerobic condition. The drug concentrations were measured over 9 timepoints collected between 0 and 24 hours of incubation by liquid-chromatography-coupled mass spectrometry (LC–MS); note: call rule not given here
# protocol conditions: 2 µM
endpoint label: Bacterial Biotransformation

compound	test result
Nc1nnc(-c2cccc(Cl)c2Cl)c(N)n1	Compound NOT metabolized
C[N+]12CCC(CC1)C(OC(=O)C(O)(c1ccccc1)c1ccccc1)C2.[Br-] (stereo unspecified) [CLIDINIUM BROMIDE]	Compound NOT metabolized
CC(=O)Nc1ccc(OC(C)=O)cc1 [DIACETAMATE]	Compound metabolized
CCS(=O)(=O)CCn1c([N+](=O)[O-])cnc1C	Compound metabolized
CCCCCNC(=N)N/N=C/c1c[nH]c2ccc(OC)cc12.O=C(O)/C=C\C(=O)O [TEGASEROD MALEATE]	Compound NOT metabolized
CC1=C(CC(=O)O)c2cc(F)ccc2/C1=C\c1ccc([S+](C)[O-])cc1 (stereo unspecified)	Compound metabolized
CCN1CCCC1CNC(=O)c1cc(S(=O)(=O)CC)c(N)cc1OC (stereo unspecified) [AMISULPRIDE]	Compound metabolized
CC[C@H](C)C(=O)O[C@H]1CCC=C2C=C[C@H](C)[C@H](CC[C@@H]3C[C@@H](O)CC(=O)O3)[C@H]21	Compound metabolized
COc1ccc([C@@H]2Sc3ccccc3N(CCN(C)C)C(=O)[C@@H]2OC(C)=O)cc1	Compound metabolized
O=C([O-])C[C@H](O)C[C@H](O)/C=C/c1c(C2CC2)nc2ccccc2c1-c1ccc(F)cc1.O=C([O-])C[C@H](O)C[C@H](O)/C=C/c1c(C2CC2)nc2ccccc2c1-c1ccc(F)cc1.[Ca+2]	Compound metabolized
C#C[C@]1(OC(C)=O)CC[C@H]2[C@@H]3CCC4=C/C(=N/O)CC[C@@H]4[C@H]3CC[C@@]21CC [NORGESTIMATE]	Compound metabolized
Nc1nc(N)nc(-c2cc(Cl)ccc2Cl)n1.O=C(O)/C=C\C(=O)O [IRSOGLADINE MALEATE]	Compound NOT metabolized
CC(=O)OCC(CCn1cnc2cnc(N)nc21)COC(C)=O	Compound metabolized
Cc1nc(Nc2ncc(C(=O)Nc3c(C)cccc3Cl)s2)cc(N2CCN(CCO)CC2)n1 [DASATINIB ANHYDROUS]	Compound metabolized
Cc1cc(C)cc(OCC2CNC(=O)O2)c1 (stereo unspecified)	Compound metabolized
COC(=O)[C@H](c1ccccc1Cl)N1CCc2sccc2C1.O=S(=O)(O)O [CLOPIDOGREL BISULFATE]	Compound metabolized
